meta.source: paper doi:10.1101/2021.10.07.463234v2

target: SARS-CoV-2 Mac1 (Severe acute respiratory syndrome coronavirus 2); assay: biochemical; conditions: read-out: %inhibition
parameterMeasured: inhibition at 100 µM (%)
Reply with just the number (in %).

compound	testedOn	inhibition at 100 µM, %
COC(=O)[C@H](c1ccccc1Cl)N1CCc2sccc2C1	SARS-CoV-2 Mac1 (Severe acute respiratory syndrome coronavirus 2)	0

Field inhibition at 100 µM (entry "COc1cc2ncnc(Nc3ccc(F)c(Cl)c3)c2cc1NC(=O)/C=C/CN1CCCCC1" ) reads 3.46

Field inhibition at 100 µM (entry "Cc1cnc(C(=O)O)c[n+]1[O-]" ) reads 14

Field inhibition at 100 µM (entry "C#C[C@]1(O)CC[C@H]2[C@@H]3CCc4cc(O)ccc4[C@H]3CC[C@@]21C" ) reads 0

Field inhibition at 100 µM (entry CC(C)n1c(/C=C/[C@@H](O)C[C@@H](O)CC(=O)O)c(-c2ccc(F)cc2)c2ccccc21 (racemic) [Fluvastatin Sodium] ) reads 30

Field inhibition at 100 µM (entry "O=[N+]([O-])c1ccc(O)c2ncccc12" ) reads 0

Field inhibition at 100 µM (entry CCC(=O)OCC(=O)[C@@]1(OC(=O)CC)[C@@H](C)C[C@H]2[C@@H]3CCC4=CC(=O)C=C[C@]4(C)[C@@]3(Cl)[C@@H](O)C[C@@]21C [Beclomethasone dipropionate] ) reads 0

Field inhibition at 100 µM (entry CC[C@@H](CO)NCCN[C@@H](CC)CO [Ethambutol 2HCl] ) reads 7.53

Field inhibition at 100 µM (entry C[N+](C)(C)CCO [Choline Chloride] ) reads 0

Field inhibition at 100 µM (entry "Nc1ccc(S(=O)(=O)Nc2ccnn2-c2ccccc2)cc1" ) reads 0

Field inhibition at 100 µM (entry "CC(=O)c1cc2c(o1)C(=O)c1ccccc1C2=O" ) reads 6.24

====

biological target: UniProtKB P0DTD1; assay: biochemical; details: read-out: %inhibition
Counter-ions that a name gives are not always drawn.
Would you please tag the item satisfied when its inhibition at 100 µM is 10% or above, and not satisfied when it is below?

Observe how each entry below is paired with its result.
compound	className
NCc1ccccc1CC(=O)N[C@@H]1C(=O)N2C(C(=O)O)=C(CSc3nnnn3CC(=O)O)CS[C@H]12 [Ceforanide]	not satisfied
CC[C@@H](C(N)=O)N1CCCC1=O	not satisfied
COc1ncnc(NS(=O)(=O)c2ccc(N)cc2)c1OC	not satisfied
O=C(CCCCCCNC(=O)c1cnc(N(c2ccccc2)c2ccccc2)nc1)NO	not satisfied
O=C(CCCN1CC=C(n2c(=O)[nH]c3ccccc32)CC1)c1ccc(F)cc1	not satisfied
CCCCNc1cc(C(=O)O)cc(S(N)(=O)=O)c1Oc1ccccc1 [Bumetanide]	satisfied
OCCN1C[C@H](O)[C@@H](O)[C@H](O)[C@H]1CO	satisfied
CC[C@@H]1C(=O)N(C)c2cnc(Nc3ccc(C(=O)N[C@H]4CC[C@H](N5CCN(CC6CC6)CC5)CC4)cc3OC)nc2N1C(C)C	not satisfied

Exam item: hey, is inhibition at 100 µM for this one >= 10%? COc1cc2nc(N3CCN(C(=O)C4COc5ccccc5O4)CC3)nc(N)c2cc1OC (stereo not shown) [Doxazosin Mesylate]
Marked response: satisfied

Exam item: hey, is inhibition at 100 µM for this one >= 10%? CN[C@@H]1[C@@H](O)[C@@H](O[C@@H]2[C@@H](O)[C@H](O[C@H]3OC(CN)=CC[C@H]3N)[C@@H](N)C[C@H]2N)OC[C@]1(C)O [Sisomicin sulfate]
Marked response: not satisfied

Exam item: hey, is inhibition at 100 µM for this one >= 10%? "Nc1nc(O)c2ncn(CCC(CO)CO)c2n1"
Marked response: satisfied

Exam item: hey, is inhibition at 100 µM for this one >= 10%? "O=c1[nH]c(=O)n([C@H]2C[C@H](O)[C@@H](CO)O2)cc1I"
Marked response: satisfied

Exam item: hey, is inhibition at 100 µM for this one >= 10%? "O=C(O)COC(=O)Cc1ccccc1Nc1c(Cl)cccc1Cl"
Marked response: not satisfied

Exam item: hey, is inhibition at 100 µM for this one >= 10%? C/C(=C\c1csc(C)n1)[C@@H]1C[C@@H]2O[C@]2(C)CCC[C@H](C)[C@H](O)[C@@H](C)C(=O)C(C)(C)[C@@H](O)CC(=O)N1 [Ixabepilone (BMS-247550)]
Marked response: not satisfied

Exam item: hey, is inhibition at 100 µM for this one >= 10%? "Nc1ccc(S(=O)(=O)c2ccc(N)cc2)cc1"
Marked response: not satisfied

====

target: UniProt:P0DTD1; test: biochemical; details: read-out: %inhibition
parameterMeasured: inhibition at 100 µM (%)
Reply with just the number (in %).

Would you please look over these solved cases?
molecule	inhibition at 100 µM, %
CC1(C)[C@@H](O)CC[C@]2(C)[C@H]3C(=O)C=C4[C@@H]5C[C@@](C)(C(=O)O)CC[C@]5(C)CC[C@@]4(C)[C@]3(C)CC[C@@H]12	0
CC1(C)S[C@@H]2[C@H](NC(=O)C(C(=O)O)c3ccccc3)C(=O)N2[C@H]1C(=O)O (some centres unmarked) [Carbenicillin disodium]	2.9
NC(=O)CCC(N)C(=O)O (racemic)	0
CN(C)CCN1C(=O)c2cccc3cc(N)cc(c23)C1=O [Amonafide]	16.3
C[N+](C)(C)CC(=O)O	0

// inhibition at 100 µM (UniProt:P0DTD1) for "COc1cc(/C=C/C(=O)CC(=O)/C=C/c2ccc(O)c(OC)c2)ccc1O" = 1.88

// inhibition at 100 µM (UniProt:P0DTD1) for "Oc1c(Br)cc(Br)c2cccnc12" = 0

====

target: SARS-CoV-2 Mac1 (Severe acute respiratory syndrome coronavirus 2, UniProt P0DTD1); test: biochemical; conditions: read-out: %inhibition
// reported inhibition at 100 µM for each item listed

compound	testedOn	inhibition at 100 µM
C[N+](C)(C)CCCCCCCCCC[N+](C)(C)C [Decamethonium Bromide]	SARS-CoV-2 Mac1 (Severe acute respiratory syndrome coronavirus 2, UniProt P0DTD1)	0%
Cc1cc(Nc2cc(N3CCN(C)CC3)nc(Sc3ccc(NC(=O)C4CC4)cc3)n2)n[nH]1 [Tozasertib (VX-680, MK-0457)]	SARS-CoV-2 Mac1 (Severe acute respiratory syndrome coronavirus 2, UniProt P0DTD1)	33.2%
O=C(CCNNC(=O)c1ccncc1)NCc1ccccc1 [Nialamide]	SARS-CoV-2 Mac1 (Severe acute respiratory syndrome coronavirus 2, UniProt P0DTD1)	25%
CCCCCCCCCCCC[N+](C)(C)CCOc1ccccc1 [Domiphen Bromide]	SARS-CoV-2 Mac1 (Severe acute respiratory syndrome coronavirus 2, UniProt P0DTD1)	0.79%

Field inhibition at 100 µM (entry CN1CC[C@H](c2c(O)cc(O)c3c(=O)cc(-c4ccccc4Cl)oc23)[C@H](O)C1 [Flavopiridol (Alvocidib)] ) reads 50.4%

Field inhibition at 100 µM (entry CC#CCn1c(N2CCC[C@@H](N)C2)nc2c1c(=O)n(Cc1nc(C)c3ccccc3n1)c(=O)n2C [Linagliptin] ) reads 23.9%

Field inhibition at 100 µM (entry C[C@@H]1C/C=C/C=C/C=C/C=C/[C@H](O[C@@H]2O[C@H](C)[C@@H](O)[C@H](N)[C@@H]2O)C[C@@H]2O[C@](O)(C[C@@H](O)C[C@H]3O[C@@H]3/C=C/C(=O)O1)C[C@H](O)[C@H]2C(=O)O [Natamycin] ) reads 0%

Field inhibition at 100 µM (entry O=C(O)P(=O)(O)O [Foscarnet Sodium] ) reads 2.46%

====

target: SARS-CoV-2 Mac1 (Severe acute respiratory syndrome coronavirus 2, UniProt P0DTD1); assay: biochemical; conditions: 100 µM; inhibitor
Where a name gives a salt, the structure may show the parent alone.
Would you please tag the item label 1 when its %inhibition is 1% or above, and label 0 when it is below?

Observe how each entry below is paired with its result.
compound	testedOn	className
CC(C(=O)O)c1ccc(CC2CCCC2=O)cc1 (stereo not shown) [Loxoprofen]	SARS-CoV-2 Mac1 (Severe acute respiratory syndrome coronavirus 2, UniProt P0DTD1)	label 1
COc1c(N2C[C@@H]3CCCN[C@@H]3C2)c(F)cc2c(=O)c(C(=O)O)cn(C3CC3)c12 [Moxifloxacin]	SARS-CoV-2 Mac1 (Severe acute respiratory syndrome coronavirus 2, UniProt P0DTD1)	label 1
CC(=O)Oc1cc2c(s1)CCN(C(C(=O)C1CC1)c1ccccc1F)C2 (stereo not shown) [Prasugrel Hydrochloride]	SARS-CoV-2 Mac1 (Severe acute respiratory syndrome coronavirus 2, UniProt P0DTD1)	label 0
COc1ccc2cc3[n+](cc2c1OC)CCc1cc2c(cc1-3)OCO2 [Berberine Sulfate]	SARS-CoV-2 Mac1 (Severe acute respiratory syndrome coronavirus 2, UniProt P0DTD1)	label 0

Exam item: hey, is %inhibition for this one >= 1%? CCc1cc2c(cc1CC)CC(NC[C@H](O)c1ccc(O)c3[nH]c(=O)ccc13)C2 [Indacaterol]
Marked response: label 1

Exam item: hey, is %inhibition for this one >= 1%? CC1=NN(c2ccc(C)c(C)c2)C(=O)/C1=N\Nc1cccc(-c2cccc(C(=O)O)c2)c1O [Eltrombopag]
Marked response: label 0
